# osteopontin expression in relation to untreated control (100%) listing for each entry below
# Test system: osteopontin
# Measurement Notes: Western blot of osteopontin expression after exposure to ASOs
# Type: cell-based, human
# Condition Summary: MDA-MB231; twofold exposure; lipofectamine; 10 μM
Unit % implied. Number only.

Please review the following examples before continuing.
# Substance, Units Of Measure, Endpoint Result
rows = [
    ("5′-GTGGCCACAGCATCTGGGTA-3′ [ASO-OPN-7] (antisense GTGGCCACAGCATCTGGGTA; all phosphorothioate, sugars by position and methylation of C not given here)", "%", 69),
    ("5′-CTAACTTAAAAAACAAAAGA-3′ (antisense CTAACTTAAAAAACAAAAGA; all phosphorothioate, sugars by position and methylation of C not given here) [ASO-OPN-4]", "%", 23),
]

Now consider the entry below.
Let me check: 5′-GTGGCCACAGCATCTGGGTA-3′ [ASO-OPN-6] (antisense GTGGCCACAGCATCTGGGTA; all phosphorothioate, sugars by position and methylation of C not given here) , system osteopontin, measured osteopontin expression in relation to untreated control (100%) is 68
